Entries annotated with measured inhibition
Test: Compound was evaluated for inhibition of PP2A at a concentration of 500 uM)
Hey, just the number and the unit after it is fine.

Q: Tell me its inhibition given O=P(O)(O)C(F)(F)c1cccc2ccccc12 as the entry.
A: 52%

Q: Tell me its inhibition given O=P(O)(O)C(F)(F)c1ccc2ccccc2c1 as the entry.
A: 39%

Q: Tell me its inhibition given O=P(O)(O)C(F)(F)c1ccc2c(C(F)(F)P(=O)(O)O)cccc2c1 as the entry.
A: 75%

---

Target: Tyrosine-protein phosphatase non-receptor type 1 (Homo sapiens) (UniProt P18031)
Sequence (whole entry): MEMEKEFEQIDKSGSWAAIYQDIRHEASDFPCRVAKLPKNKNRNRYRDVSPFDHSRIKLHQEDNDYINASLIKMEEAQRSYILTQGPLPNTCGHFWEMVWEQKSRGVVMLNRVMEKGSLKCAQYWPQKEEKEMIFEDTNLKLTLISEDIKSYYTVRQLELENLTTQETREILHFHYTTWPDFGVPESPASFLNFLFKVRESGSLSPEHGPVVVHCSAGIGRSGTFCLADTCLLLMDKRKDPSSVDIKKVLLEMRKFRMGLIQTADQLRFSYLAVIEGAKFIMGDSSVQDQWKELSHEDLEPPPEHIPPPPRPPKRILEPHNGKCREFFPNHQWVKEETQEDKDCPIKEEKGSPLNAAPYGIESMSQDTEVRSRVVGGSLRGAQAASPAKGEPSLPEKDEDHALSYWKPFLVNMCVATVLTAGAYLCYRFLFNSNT
Assay: Compound was evaluated for inhibition of PTP1B at a concentration of 500 uM)
attribute_measured: inhibition (%)
Give the value in % but do not write % after it.

Sample records with inhibition:
INSERT INTO assay_data (mol, uom, data_value) VALUES
  ('O=P(O)(O)C(F)(F)c1ccc2cc(C(F)(F)P(=O)(O)O)ccc2c1', '%', 100),
  ('O=P(O)(O)C(F)(F)c1cccc2ccccc12', '%', 83),
  ('O=P(O)(O)C(F)(F)c1cc(C(F)(F)P(=O)(O)O)c2ccccc2c1', '%', 81),
  ('O=P(O)(O)C(F)(F)c1ccc2c(C(F)(F)P(=O)(O)O)cccc2c1', '%', 89),
  ('O=P(O)(O)C(F)(F)c1cccc2c(C(F)(F)P(=O)(O)O)cccc12', '%', 51);

Q: Tell me its inhibition given O=P(O)(O)C(F)(F)c1ccc2ccc(C(F)(F)P(=O)(O)O)cc2c1 as the entry.
A: 100

Q: Tell me its inhibition given O=P(O)(O)C(F)(F)c1ccc2ccccc2c1 as the entry.
A: 84

Q: Tell me its inhibition given O=P(O)(O)C(F)(F)c1ccc2cccc(C(F)(F)P(=O)(O)O)c2c1 as the entry.
A: 98

---

Test: Compound was evaluated for 50% inhibition of PP2A, a serine/threonine phosphatase using uM)
attribute_measured: pIC50
Keep in mind that pIC50 stands for -log10 of concentration in molar terms.

INSERT INTO measurements (mol, attribute_measured, data_value) VALUES
  ('O=P(O)(O)C(F)(F)c1cccc2ccccc12', 'pIC50', 3.20),
  ('O=P(O)(O)C(F)(F)c1ccc2cccc(C(F)(F)P(=O)(O)O)c2c1', 'pIC50', 3.32),
  ('O=P(O)(O)C(F)(F)c1ccc2ccc(C(F)(F)P(=O)(O)O)cc2c1', 'pIC50', 3.51),
  ('O=P(O)(O)C(F)(F)c1ccc2ccccc2c1', 'pIC50', 3.12);

# evaluate next
Q: Tell me its pIC50 given O=P(O)(O)C(F)(F)c1ccc2cc(C(F)(F)P(=O)(O)O)ccc2c1 as the entry.
A: 3.45
